# Test system: OVCAR-3 ovarian
# ASSAY_COMMENT: NCI tumour cell line growth inhibition, 48 h
# TGI annotations

Some solved entries appear below for comparison.
> print(dat)
                                    compound  endpoint.value
 1      Cc1nc2ccccc2c(=O)n1Nc1ccc(C(=O)O)cc1        > 100 µM
 2                  CN1C(=O)C(C)(C)NS1(=O)=O        > 100 µM
 3  COc1ccc(-c2cc(=O)c3c(OC)c(O)c(OC)cc3o2)cc1        > 100 µM
 4   COc1cc(/C=C2/CCCc3ccccc3C2=O)cc(OC)c1OC       > 55.6 µM
 5  Cc1cc(N2CCCCC2)nc(NCc2cc(Nc3ccnc4cc(Cl)ccc34)ccc2F)n1         3.17 µM
 6                NS(=O)(=O)c1ccc(C(=O)O)cc1        > 100 µM
 7             Nc1nc2ccccc2c2[nH]c3ccccc3c12         4.37 µM
 8       COC(=O)c1ccc(CS(=O)(=O)c2ccccc2)cc1        > 100 µM
 9  CCOC(=O)CC[C@H](NC(=O)c1ccc(CNc2nc3cc(C(F)(F)F)ccc3nc2C(=O)OCC)cc1)C(=O)OCC       > 53.2 µM
10  CC12CCC(=O)N1c1cc([N+](=O)[O-])ccc1N2 (configuration not stated)        > 100 µM

Exam item: Form field: reported TGI of `CCc1cc(C)cc2[n+]1CC=C2C`
Marked response: > 100 µM

Exam item: Likewise for `COc1ccc(-c2c(-c3cc4c(c(OC)c3OC)OCO4)noc2N)cc1` ?
Marked response: 0.812 µM

Exam item: Likewise for CN1CCN2c3ccccc3CC(C#N)(C#N)C2C1 (configuration not stated) ?
Marked response: > 100 µM

Exam item: Likewise for `O=P1(N(CCCl)CCCl)Oc2c(Cl)cc(Cl)c(Cl)c2Cc2c(Cl)c(Cl)cc(Cl)c2O1` ?
Marked response: > 100 µM

Exam item: Likewise for `COc1c(N2CCCCC2)c2c(=O)c3ccccc3oc2c2cc(C)oc12` ?
Marked response: > 100 µM

Exam item: Likewise for `CC1(C)CCc2cc3c(cc2O1)OC(C)(C)CC3=O` ?
Marked response: > 100 µM
